# Measurement Target: Phosphodiesterase 3 (Homo sapiens) (UniProt Q14432+Q13370)
# Experimental Protocol: Inhibition of Phosphodiesterase 3 (PDE III) at 100 uM
# Type: protein assay
Returns one of Met or Not met; Met when inhibition is >= 20%.

Reference set, count: 3
1. COc1ccc(/C=C2\C(=O)N(C)c3ccc(Br)cc32)cc1OC1CC2CCC1C2 (configuration not stated): Not met
2. COc1ccc(C2CNC(=O)C2)cc1OC1CCCC1 (configuration not stated): Met
3. COc1ccc(/C=C2\C(=O)Nc3ccc([N+](=O)[O-])cc32)cc1OC1CC2CCC1C2 (configuration not stated): Not met

API: above_or_equal(metric=inhibition, cutoff=20%) for item COc1ccc(/C=C2\C(=O)N(C)c3ccc(Cl)cc32)cc1OC1CC2CCC1C2 (configuration not stated)
Not met

Please do the same for COc1ccc(/C=C2\C(=O)Nc3ccc(Br)cc32)cc1OC1CC2CCC1C2 (configuration not stated) as well.
Not met

Please do the same for COc1ccc(/C=C2/C(=O)N(C)c3ccc([N+](=O)[O-])cc32)cc1OC1CC2CCC1C2 (configuration not stated) as well.
Met

Please do the same for COc1ccc(/C=C2/C(=O)Nc3ccccc32)cc1OC1CC2CCC1C2 (configuration not stated) as well.
Met

Ref: ChEMBL document CHEMBL1128803
